Selectivity ratio values for the compounds below.
Species: Homo sapiens
Assay: Selectivity for human NPY4 over NPY2 receptor
Write the number on its own, no unit after it.

INSERT INTO results (compound, endpoint, recorded_number) VALUES
  ('CCC[C@H](NC(=O)[C@H](CCCN=C(N)N)NC(=O)[C@H](Cc1c[nH]c2ccccc12)NC(=O)[C@@H](N)CCC[C@H](N)C(=O)N[C@@H](Cc1c[nH]c2ccccc12)C(=O)N[C@@H](CCCN=C(N)N)C(=O)N[C@@H](CCC)C(=O)N[C@@H](CCCN=C(N)N)C(=O)N[C@@H](Cc1ccc(O)cc1)C(N)=O)C(=O)N[C@@H](CCCN=C(N)N)C(=O)N[C@@H](Cc1ccc(O)cc1)C(N)=O (stereo in doubt; 2A)', 'Selectivity ratio', 70),
  ('CCC[C@H](NC(=O)[C@H](CCCN=C(N)N)NC(=O)[C@H](Cc1c[nH]c2ccccc12)NC(=O)[C@@H](N)CCCC[C@H](N)C(=O)N[C@@H](Cc1c[nH]c2ccccc12)C(=O)N[C@@H](CCCN=C(N)N)C(=O)N[C@@H](CCC)C(=O)N[C@@H](CCCN=C(N)N)C(=O)N[C@@H](Cc1ccc(O)cc1)C(N)=O)C(=O)N[C@@H](CCCN=C(N)N)C(=O)N[C@@H](Cc1ccc(O)cc1)C(N)=O (stereo in doubt; 4B)', 'Selectivity ratio', 270);

Prompt: Given the compound `CCC[C@H](NC(=O)[C@H](CCCN=C(N)N)NC(=O)[C@H](Cc1c[nH]c2ccccc12)NC(=O)[C@@H](N)CC[C@H](N)C(=O)N[C@@H](Cc1c[nH]c2ccccc12)C(=O)N[C@@H](CCCN=C(N)N)C(=O)N[C@@H](CCC)C(=O)N[C@@H](CCCN=C(N)N)C(=O)N[C@@H](Cc1ccc(O)cc1)C(N)=O)C(=O)N[C@@H](CCCN=C(N)N)C(=O)N[C@@H](Cc1ccc(O)cc1)C(N)=O` , what is its reported Selectivity ratio?
Response: 85
